Tested on: HEK-293T
Protocol text: Multiplex assay against HEK293T
Type: toxicity, cell-based
Test context: human, 12 h, 1 µM, compound concentration 1 uM, replicate 2
Record met whenever Population Pyknosed Nuclei (%) is at 40% or higher; record not met when lower.

Below, 4 compounds whose answers are already recorded.
{"columns": ["Compound", "Target entity", "Answer label"],
 "data": [
  ["CC(C)OC(=O)N1CCC(Oc2ncnc3c2cnn3-c2ccc(S(C)(=O)=O)cc2F)CC1", "HEK-293T", "met"],
  ["CCc1nn(CCCN2CCN(c3cccc(Cl)c3)CC2)c(=O)n1CCOc1ccccc1.Cl [NEFAZODONE HYDROCHLORIDE]", "HEK-293T", "met"],
  ["C=CC(=O)Nc1ccc2[nH]c(=O)n(C3CCN(Cc4ccc(-c5nc6cc[nH]c(=O)c6cc5-c5ccccc5)cc4)CC3)c2c1", "HEK-293T", "not met"],
  ["COc1ccc(-c2ccc3ncc4c(c3c2)n(-c2ccc(N3CCNCC3)c(C(F)(F)F)c2)c(=O)n4C)cn1.O=C(O)/C=C\\C(=O)O", "HEK-293T", "met"]
]}

Would you say `O=c1cc(N2CCOCC2)oc2c(-c3cccc4c3sc3ccccc34)cccc12` shows Population Pyknosed Nuclei (%) at minimum 40%?
met

Could you tell me if the measured Population Pyknosed Nuclei (%) of COc1cc2ncn(-c3cc(OCc4ccccc4C(F)(F)F)c(C(N)=O)s3)c2cc1OC [GW843682X] reaches 40% or more?
met
